- System: CCRF-CEM
- TEST_METHOD_NOTES: NCI tumour cell line growth inhibition, 48 h
The source made the active and inactive calls. Rule as the data show it: active = GI50 up to about 1.1 µM and inactive = higher.
Respond using exactly one of the listed classes: active, inactive

[
  {
    "COMPOUND": "COc1cc(/C=C2\\C(=O)N(c3ccccc3Cl)C(c3ccccc3)S2(=O)=O)cc(OC)c1OC (configuration not stated)",
    "CLASS_LABEL": "inactive"
  },
  {
    "COMPOUND": "Oc1ccc2c(c1)c1c(n2CCN2CCOCC2)-c2ccccc2CC1",
    "CLASS_LABEL": "inactive"
  },
  {
    "COMPOUND": "N[C@H](Cc1ccc2oc3cc(=O)c4ccccc4c-3nc2c1)C(=O)O",
    "CLASS_LABEL": "inactive"
  }
]

Q) What did the test return for CC(C)=CC(=O)Cc1nc2ccccc2[nH]c1=O ?
A) inactive

Q) What did the test return for C=C[C@]1(C)CC[C@]2(C)C(CC[C@@]3(C)C2C[C@H](O)[C@H](O)[C@@]3(C)O)C1 (some centres not stated) ?
A) inactive

Q) What did the test return for Cc1ccccc1/N=N/c1c(O)c(S(=O)(=O)O)cc2cc(S(=O)(=O)O)ccc12 ?
A) inactive

Q) What did the test return for C/C(CC(O)(C(F)(F)F)C(F)(F)F)=N\O ?
A) inactive

Q) What did the test return for CC(NC(=O)OCc1ccccc1)NC(=O)OC(C)(C)C (configuration not stated) ?
A) inactive

Q) What did the test return for COC(=O)C(/C(=N/N)C(=O)Nc1cccc(O)c1)c1nc2ccccc2nc1O (configuration not stated) ?
A) inactive

Q) What did the test return for COc1ccc2c(c1)/C(=C\c1cccc(/C=C3/C(=O)Nc4ccc(OC)cc43)n1)C(=O)N2 ?
A) active

Q) What did the test return for COc1ccc(SCc2cc(OCc3ccccc3)c(OCc3ccccc3)c(OCc3ccccc3)c2)cc1 ?
A) inactive

Q) What did the test return for CN(C)CCCNc1ncnc2c1ncn2C1OC(CO)C(O)C1O (configuration not stated) ?
A) inactive

###

- System: NCI/ADR-RES
- TEST_METHOD_NOTES: NCI tumour cell line growth inhibition, 48 h
Activity calls are given as the source filed them. Rule as the data show it: active = GI50 up to about 1.1 µM and inactive = higher.
Respond using exactly one of the listed classes: active, inactive

Check out these entries, answers already filled in.
[
  {
    "COMPOUND": "O=C(O)CCC(NC(=O)c1ccc(CNc2nc3cc(C(F)(F)F)ccc3nc2C(=O)O)cc1)C(=O)O (stereo unspecified)",
    "TARGET_ENTITY": "NCI/ADR-RES",
    "CLASS_LABEL": "inactive"
  },
  {
    "COMPOUND": "Cc1ccc(SCC(OCn2cnc3c(Cl)nc(N)nc32)[C@H](C)F)cc1 (stereo partly specified)",
    "TARGET_ENTITY": "NCI/ADR-RES",
    "CLASS_LABEL": "inactive"
  },
  {
    "COMPOUND": "CN(C)CCCNc1ncnc2c1ncn2C1OC(CO)C(O)C1O (stereo unspecified)",
    "TARGET_ENTITY": "NCI/ADR-RES",
    "CLASS_LABEL": "inactive"
  }
]

API: the following record is the query input.
Q) What did the test return for COc1ccc(/C=N/n2c(Cc3ccc(Cl)cc3)n[nH]c2=O)c(OC)c1 ?
A) inactive

###

# GI50 annotations
- Test system: RPMI-8226
- TEST_METHOD_NOTES: NCI tumour cell line growth inhibition, 48 h
Active and inactive are the calls of the source. Cut-off read from the data, not from the text of the source: active = GI50 up to about 1.1 µM and inactive = higher.

[
  {
    "COMPOUND": "COC(=O)C(/C(=N/N)C(=O)Nc1cccc(O)c1)c1nc2ccccc2nc1O (centres undefined)",
    "GI50": "> 10 µM (inactive)"
  },
  {
    "COMPOUND": "CC(NC(=O)C(NC(=O)C(NC(=O)C(F)(F)F)C(C)C)C(C)C)C(=O)Oc1c(Cl)c(Cl)c(Cl)c(Cl)c1Cl (centres undefined)",
    "GI50": "> 100 µM (inactive)"
  }
]

Q) Return reported GI50 for target or system RPMI-8226, item COC(=O)[C@H]1N[C@@H](C(=O)OC)C23CCC[C@H]2CC[C@]1(C(OC)OC)C3 .
A) > 100 µM (inactive)

Q) Return reported GI50 for target or system RPMI-8226, item C=CCn1c(=O)n(CC=C)c(=O)n(CC=C)c1=O .
A) > 100 µM (inactive)

Q) Return reported GI50 for target or system RPMI-8226, item CCc1nc(N)nc(N)c1-c1ccc(Cl)c([N+]#N)c1 .
A) 0.564 µM (active)

Q) Return reported GI50 for target or system RPMI-8226, item N/N=C(\N)SCc1ccc(N=C=S)cc1 .
A) > 100 µM (inactive)

Q) Return reported GI50 for target or system RPMI-8226, item COc1ccc(/C=C/c2cc(OC)c(OCc3ccccc3)c(OC)c2)cc1 .
A) 57.9 µM (inactive)

Q) Return reported GI50 for target or system RPMI-8226, item COC(=O)C1=C(C(=O)OC)C2(c3ccccc3)OC1(c1ccccc1)c1cc3ccccc3cc12 .
A) 0.764 µM (active)

Q) Return reported GI50 for target or system RPMI-8226, item CNc1ccc([S+]([O-])Nc2ccc(OC)cc2)cc1 (centres undefined) .
A) > 100 µM (inactive)

Q) Return reported GI50 for target or system RPMI-8226, item C[C@@H]1C[C@H]2CC[C@H](O2)[C@H](C)C(=O)O[C@@H](C)C[C@@H]2CC[C@@H](O2)[C@@H](C)C(=O)O[C@H](C)C[C@H]2CC[C@H](O2)[C@H](C)C(=O)O[C@@H](C)C[C@@H]2CC[C@@H](O2)[C@@H](C)C(=O)O1 .
A) 0.0769 µM (active)

Q) Return reported GI50 for target or system RPMI-8226, item CC(C)[C@@H]1CC[C@@H](C)C[C@H]1OC(=O)/C=C1/C2C=CC(O2)C1C(=O)O[C@@H]1C[C@H](C)CC[C@H]1C(C)C (some centres undefined) .
A) > 100 µM (inactive)

Q) Return reported GI50 for target or system RPMI-8226, item Nc1ccccc1-n1c2c(c3ccccc3c1=O)C(=O)c1ccccc1-2 .
A) 60.1 µM (inactive)

Q) Return reported GI50 for target or system RPMI-8226, item CCCCC(/C=C\COC1CCCCO1)=C/C(=O)OCC (centres undefined) .
A) 25.9 µM (inactive)

Q) Return reported GI50 for target or system RPMI-8226, item COc1cc(-c2oc3c(OC)c(O)c(OC)c(O)c3c(=O)c2OC)cc(O)c1OC .
A) 23.8 µM (inactive)

Q) Return reported GI50 for target or system RPMI-8226, item COc1cc(/C=C2\Cc3cc(OC)c(OC)cc3C2=O)cc(OC)c1 .
A) > 33.6 µM (inactive)

Q) Return reported GI50 for target or system RPMI-8226, item CCOC(=O)C1(Cc2ccccc2)Cc2ccccc2C1=O (centres undefined) .
A) 20.4 µM (inactive)

Q) Return reported GI50 for target or system RPMI-8226, item Clc1ccc(/N=C2\c3ccccc3CN2c2ccc(Cl)cc2)cc1 .
A) 7.69 µM (inactive)

Q) Return reported GI50 for target or system RPMI-8226, item COc1ccc(CCNC(=O)CCc2ccccc2CO)cc1OC .
A) > 100 µM (inactive)

Q) Return reported GI50 for target or system RPMI-8226, item Cc1[nH]c2ccccc2c1/C=N/NC(=O)c1cccc(I)c1 .
A) 19.9 µM (inactive)

###

- Test system: M14
- TEST_METHOD_NOTES: NCI tumour cell line growth inhibition, 48 h
Active and inactive are the calls of the source. No stated cut-off is given here; in the data, active = GI50 up to about 1.1 µM and inactive = higher.
MEASURE: GI50

See these solved cases before continuing.
[
  {
    "COMPOUND": "CCOC(=O)CC1c2ccc(O)cc2OC(=O)C1c1ccc(N)cc1 (stereo not given)",
    "TARGET_ENTITY": "M14",
    "GI50": "> 100 µM (inactive)"
  },
  {
    "COMPOUND": "CC(C)(C)OC(=O)n1cc(C2CNC(=O)C23CCC(=O)N3Cc2ccccc2)c2ccccc21 (stereo not given)",
    "TARGET_ENTITY": "M14",
    "GI50": "27.4 µM (inactive)"
  },
  {
    "COMPOUND": "Cc1ccccc1/N=N/c1c(O)c(S(=O)(=O)O)cc2cc(S(=O)(=O)O)ccc12",
    "TARGET_ENTITY": "M14",
    "GI50": "> 100 µM (inactive)"
  },
  {
    "COMPOUND": "O=C1c2ccccc2CN1c1ccc(O)cc1",
    "TARGET_ENTITY": "M14",
    "GI50": "> 100 µM (inactive)"
  }
]

Here is the next item to consider.
Q) Output GI50 of COc1ccc(SCc2cc(OCc3ccccc3)c(OCc3ccccc3)c(OCc3ccccc3)c2)cc1
A) 1.92 µM (inactive)

Data provenance: ChEMBL document CHEMBL1201862
